Data credit: patent US20190224274

- Study target: T1, MIF (Homo sapiens, UniProt P14174 P14174:1-115)
- T1 sequence: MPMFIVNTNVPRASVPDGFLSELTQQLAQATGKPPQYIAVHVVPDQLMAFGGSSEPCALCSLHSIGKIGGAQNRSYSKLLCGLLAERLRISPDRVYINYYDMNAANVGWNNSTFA
- Test: EMSA; 10 mM Mg2+
- Settings: tags: GST tag removed (pGex-6P-1); chain copies: 3 (inferred, trimer by FPLC); label: 5' biotin
Metric name: binding result

// solved cases for binding result follow
binder="dsPS30 (dsDNA) DNA 1: CTCAGCCTCCCAAGTAGCTGGGATTACAGG DNA 2: CCTGTAATCCCAGCTACTTGGGAGGCTGAG" observed_measurement="no binding"
binder="dsLF (dsDNA) DNA 1: AAAAAAACTCAGCCTCCCAAGTAGCTGGGA DNA 2: TCCCAGCTACTTGGGAGGCTGAGTTTTTTT" observed_measurement="no binding"
binder="dsL3 (dsDNA) DNA 1: ACCTAAATGCTAGAGCTCGCTGATCAGCCT DNA 2: AGGCTGATCAGCGAGCTCTAGCATTTAGGT" observed_measurement="no binding"
binder="dsSL (dsDNA) DNA 1: CCTGTAATCCCAAGTAGCTGGGATTACAGG DNA 2: CCTGTAATCCCAGCTACTTGGGATTACAGG" observed_measurement="no binding"
binder="dsPA30 (dsDNA) DNA 1: AAAAAAAAAAAAAAAAAAAAAAAAAAAAAA DNA 2: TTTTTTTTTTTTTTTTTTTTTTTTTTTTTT" observed_measurement="no binding"

get_value(item= dsRF (dsDNA) DNA 1: TCCCAAGTAGCTGGGATTACAGGAAAAAAA DNA 2: TTTTTTTCCTGTAATCCCAGCTACTTGGGA , readout=binding result) returns no binding
